Target: MAP3K1 (human) (UniProt Q13233)
Sequence (Q13233 whole entry, looked up): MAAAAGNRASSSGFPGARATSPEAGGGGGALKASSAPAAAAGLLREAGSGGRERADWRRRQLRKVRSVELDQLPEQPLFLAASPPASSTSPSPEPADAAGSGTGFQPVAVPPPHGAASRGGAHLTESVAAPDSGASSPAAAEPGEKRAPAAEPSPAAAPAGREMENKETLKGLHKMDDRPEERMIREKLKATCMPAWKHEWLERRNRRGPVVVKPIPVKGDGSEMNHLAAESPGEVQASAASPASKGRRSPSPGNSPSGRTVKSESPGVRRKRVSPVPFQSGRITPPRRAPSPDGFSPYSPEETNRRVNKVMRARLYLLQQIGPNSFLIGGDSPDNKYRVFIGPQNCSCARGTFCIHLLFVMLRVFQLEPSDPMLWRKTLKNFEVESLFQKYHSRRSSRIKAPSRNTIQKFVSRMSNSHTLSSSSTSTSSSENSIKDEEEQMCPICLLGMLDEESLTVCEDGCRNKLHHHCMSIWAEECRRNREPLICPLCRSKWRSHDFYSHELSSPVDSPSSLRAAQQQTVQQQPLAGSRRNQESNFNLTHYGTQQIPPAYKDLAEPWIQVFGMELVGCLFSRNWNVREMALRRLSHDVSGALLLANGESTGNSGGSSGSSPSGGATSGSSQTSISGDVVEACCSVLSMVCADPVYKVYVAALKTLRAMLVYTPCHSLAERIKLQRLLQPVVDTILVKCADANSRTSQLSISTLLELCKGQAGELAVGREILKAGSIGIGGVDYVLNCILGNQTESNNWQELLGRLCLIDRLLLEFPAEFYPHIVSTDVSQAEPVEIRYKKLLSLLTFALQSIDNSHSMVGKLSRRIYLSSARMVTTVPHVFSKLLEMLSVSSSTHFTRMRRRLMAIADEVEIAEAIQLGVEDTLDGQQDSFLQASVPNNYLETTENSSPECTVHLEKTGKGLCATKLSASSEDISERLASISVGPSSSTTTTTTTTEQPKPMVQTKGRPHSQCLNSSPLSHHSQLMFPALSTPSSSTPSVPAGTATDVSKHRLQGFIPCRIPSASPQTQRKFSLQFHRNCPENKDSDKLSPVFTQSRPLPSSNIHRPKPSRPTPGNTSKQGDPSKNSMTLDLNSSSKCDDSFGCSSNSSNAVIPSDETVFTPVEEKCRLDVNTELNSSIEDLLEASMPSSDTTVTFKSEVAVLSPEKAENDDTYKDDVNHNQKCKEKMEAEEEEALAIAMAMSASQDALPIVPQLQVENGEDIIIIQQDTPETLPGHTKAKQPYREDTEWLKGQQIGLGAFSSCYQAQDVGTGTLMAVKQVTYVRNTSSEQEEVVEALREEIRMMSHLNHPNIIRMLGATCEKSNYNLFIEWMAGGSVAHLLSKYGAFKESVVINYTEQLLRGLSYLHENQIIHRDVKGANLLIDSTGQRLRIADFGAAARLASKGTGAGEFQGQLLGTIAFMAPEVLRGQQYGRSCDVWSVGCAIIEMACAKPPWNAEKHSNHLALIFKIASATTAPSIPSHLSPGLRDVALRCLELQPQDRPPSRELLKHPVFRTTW
Experiment: radiometric filter-binding kinase assay
Conditions: compound 1.0 µM
MEASURED ATTRIBUTE: residual activity (%)

{"columns": ["COMPOUND", "MEASUREMENT UNIT", "residual activity"],
 "data": [
  ["C=CC(=O)N1CCC[C@@H](n2nc(-c3ccc(Oc4ccccc4)cc3)c3c(N)ncnc32)C1", "%", 103],
  ["O=C(N[C@@H](COc1ccc2[nH]c(=O)[nH]c2c1)c1ccccc1)c1cccn(Cc2ccc(F)c(F)c2)c1=O", "%", 114],
  ["CC1=C(CO)C(=O)O[C@@H]([C@@H](C)[C@H]2CC[C@H]3[C@@H]4C[C@H]5O[C@]56[C@@H](O)C=CC(=O)[C@]6(C)C4CC[C@]23C)C1 (stereo not given in full)", "%", 115],
  ["O=C(Nc1ccccc1-c1cn2c(CN3CCNCC3)csc2n1)c1cnc2ccccc2n1", "%", 92],
  ["COc1ccc(-n2ncc3cnc(Nc4cc(OC)c(OC)c(OCCCN5CCN(C)CC5)c4)nc32)cc1", "%", 92]
]}

----------
Target: CAMKK2 (human) (UniProt Q96RR4)
Sequence (Q96RR4 whole entry, looked up): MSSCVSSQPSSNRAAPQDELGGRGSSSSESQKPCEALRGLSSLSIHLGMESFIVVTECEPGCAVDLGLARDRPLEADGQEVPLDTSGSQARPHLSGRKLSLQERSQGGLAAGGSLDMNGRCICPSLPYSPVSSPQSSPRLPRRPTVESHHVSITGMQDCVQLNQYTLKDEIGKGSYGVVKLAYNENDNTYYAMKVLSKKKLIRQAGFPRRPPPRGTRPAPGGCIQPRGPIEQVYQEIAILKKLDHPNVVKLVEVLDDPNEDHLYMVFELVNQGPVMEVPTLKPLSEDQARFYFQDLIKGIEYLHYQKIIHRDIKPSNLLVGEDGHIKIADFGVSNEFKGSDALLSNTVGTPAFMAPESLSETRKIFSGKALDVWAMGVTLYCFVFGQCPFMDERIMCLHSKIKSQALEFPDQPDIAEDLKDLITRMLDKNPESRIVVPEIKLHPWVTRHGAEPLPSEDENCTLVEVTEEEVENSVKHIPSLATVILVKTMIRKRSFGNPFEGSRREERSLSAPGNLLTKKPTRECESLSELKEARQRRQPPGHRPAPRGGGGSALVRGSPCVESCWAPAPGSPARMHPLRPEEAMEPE
Test: radiometric filter-binding kinase assay
Details: compound 0.1 µM
MEASURED ATTRIBUTE: residual activity (%)

Before answering, review these 3 worked examples.
{"columns": ["COMPOUND", "QUANTITATIVE RESULT"],
 "data": [
  ["COc1ccc(-n2ncc3cnc(Nc4cc(OC)c(OC)c(OCCCN5CCN(C)CC5)c4)nc32)cc1", 58],
  ["NC(=O)Nc1ccc2c(c1)/C(=C/c1cc(-c3cccnc3)c[nH]1)C(=O)N2", 67],
  ["Cc1ccc(Sc2cnc(Nc3cccc(Br)n3)s2)cc1C(=O)N1CCN(C(=O)CN)CC1", 22]
]}

1: NC(=O)c1cc2c(-c3cccc(-c4ccccc4)c3)cnc(N)c2s1
2: CNC(=O)C1[C@H]2O[C@@](C)([C@@H]1N)n1c3ccccc3c3c4c(c5c6ccccc6n2c5c31)C(=O)NC4 (stereo not given in full)
q: Please choose the item with the lower residual activity value from this pair: 1 and 2 Mark your answer with the label of the selected entry.
a: 2

----------
Biological target: CHEK1 (human)
Assay: radiometric filter-binding kinase assay
Conditions: compound 10.0 µM
MEASURED ATTRIBUTE: residual activity (%)

Examples from the recorded data:
{"columns": ["COMPOUND", "ASSAYED SYSTEM", "MEASUREMENT UNIT", "residual activity"],
 "data": [
  ["NC(=O)c1cc2c(-c3cccc(-c4ccccc4)c3)cnc(N)c2s1", "CHEK1 (human)", "%", 29],
  ["C=CC(=O)N1CCC[C@@H](n2nc(-c3ccc(Oc4ccccc4)cc3)c3c(N)ncnc32)C1", "CHEK1 (human)", "%", 77],
  ["O=C1Nc2nc(-c3c(O)cccc3OCC3CC3)cc(C3CCCNC3)c2CO1 (centres undefined)", "CHEK1 (human)", "%", 88]
]}

a: Cc1ccc(=O)n(-c2ccccc2)c1
b: Cc1ccc(Sc2cnc(Nc3cccc(Br)n3)s2)cc1C(=O)N1CCN(C(=O)CN)CC1
q: Pick the one with the larger residual activity: a vs b // output: label of the selected item
a: a
(a: 90%, b: 52%)

1: N#Cc1c(C2CCNCC2)cc(-c2c(O)cccc2OCC2CC2)nc1N
2: CCOC(=O)c1ccc(N2NC(=O)/C(=C/c3ccc([N+](=O)[O-])o3)C2=O)cc1
q: Smaller residual activity value, 1 vs 2 ? The response must carry the label of the picked entry.
a: 1
(1: 92%, 2: 164%)

These entries and their values trace back to the kinase profiling compilation of Christmann-Franck et al. (2016).
